# Measured On: Bcat-Halo (beta-catenin HaloTag construct expressed in HEK293 cells) (UniProt P35222)
# Sequence (P35222 whole entry): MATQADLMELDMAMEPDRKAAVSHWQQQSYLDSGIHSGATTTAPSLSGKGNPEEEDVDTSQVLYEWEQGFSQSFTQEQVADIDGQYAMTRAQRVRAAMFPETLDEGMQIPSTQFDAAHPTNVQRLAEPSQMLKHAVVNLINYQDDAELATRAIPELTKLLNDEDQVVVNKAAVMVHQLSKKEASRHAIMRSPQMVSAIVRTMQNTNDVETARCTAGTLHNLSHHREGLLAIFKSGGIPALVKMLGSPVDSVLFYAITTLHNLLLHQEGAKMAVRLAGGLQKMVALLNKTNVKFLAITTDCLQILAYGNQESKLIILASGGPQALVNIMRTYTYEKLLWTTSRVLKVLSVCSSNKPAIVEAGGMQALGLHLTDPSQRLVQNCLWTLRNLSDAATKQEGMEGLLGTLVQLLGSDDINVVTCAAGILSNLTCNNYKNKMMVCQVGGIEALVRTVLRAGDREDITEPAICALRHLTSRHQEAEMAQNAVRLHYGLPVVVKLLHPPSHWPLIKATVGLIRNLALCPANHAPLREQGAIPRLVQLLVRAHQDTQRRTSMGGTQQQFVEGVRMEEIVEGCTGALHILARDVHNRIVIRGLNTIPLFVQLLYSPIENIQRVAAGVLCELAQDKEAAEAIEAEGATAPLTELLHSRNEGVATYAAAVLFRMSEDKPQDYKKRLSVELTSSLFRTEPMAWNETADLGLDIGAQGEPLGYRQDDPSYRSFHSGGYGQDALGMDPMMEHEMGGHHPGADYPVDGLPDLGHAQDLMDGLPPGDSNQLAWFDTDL
# Assay Explanation: NanoBRET Abs IC50 in HEK293 cells; Bcat-Halo with TCF4-Luc as competitor
Starred links: 1 amine or outer side, 2 acyl side, 3 side chain; linkers in the order of their positions; H or OH if unused. Positions of bridges follow the written chain, without caps; N, C: chain ends. Non-standard residues stand in square brackets, D forms with d. Primed or numbered codes have the meaning given here. PyrS2″ = (S)-3-amino-1-((pent-4-en-1-yloxy)carbonyl)pyrrolidine-3-carboxylic acid (stapling residue), C=CCCCOC(=O)N1CC[C@@](N[*:1])(C(=O)[*:2])C1; B5(4) = 2,2-bis(4-pentenyl)glycine = 2-amino-2-(pent-4-en-1-yl)hept-6-enoic acid (stitching residue), C=CCCCC(CCCC=C)(N[*:1])C(=O)[*:2]; Bta = N[C@@H](Cc1csc2ccccc12)C(=O)O; αAllylPro = C=CC[C@@]1(C(=O)O)CCCN1; tBuAla = CC(C)(C)C[C@H](N)C(=O)O; 3Thi = N[C@@H](Cc1ccsc1)C(=O)O; Cit = NC(=O)NCCC[C@H](N)C(=O)O
Measurement Type: IC50 (µM)

Some entries whose results are on file:
INSERT INTO results (binder, reported_value) VALUES
  ('Ac-[αAllylPro]D[tBuAla][B5(4)]D[Cit]AAFN[PyrS2″][3Thi][Bta]H-NH2 (staple 1-4, 4-11) [I-841]', 34.4),
  ('Ac-[αAllylPro]D[tBuAla][B5(4)]DQAAFN[PyrS2″][3Thi][Bta]H-NH2 (staple 1-4, 4-11) [I-839]', 41.9),
  ('Ac-[αAllylPro]D[tBuAla][B5(4)]DQAAFN[PyrS2″][3Thi][Bta]Q-NH2 (staple 1-4, 4-11) [I-838]', 17.4);

A. Ac-[αAllylPro]D[tBuAla][B5(4)]DYAAFN[PyrS2″][3Thi][Bta]Q-NH2 (staple 1-4, 4-11) [I-842]
B. Ac-[αAllylPro]D[tBuAla][B5(4)]DNAAFN[PyrS2″][3Thi][Bta]H-NH2 (staple 1-4, 4-11) [I-837]
Field: lower IC50 | Options: A / B Selection: enter the item's label.
B
